- Study target: T1, L1 (DV1-GV4), soluble human Vδ1/Vγ4 γδ TCR heterodimer in leucine zipper format (human)
- T1 construct: Biotinylated in the DELFIA ranking; also called Antigen L1 (TRDV1/TRGV4); human DV1-GV4; not shown: gamma chain: Vγ4 (TRGV4) domain on a TCR constant region, leucine zipper, histidine tag
- T1 sequence (main, as listed by the source): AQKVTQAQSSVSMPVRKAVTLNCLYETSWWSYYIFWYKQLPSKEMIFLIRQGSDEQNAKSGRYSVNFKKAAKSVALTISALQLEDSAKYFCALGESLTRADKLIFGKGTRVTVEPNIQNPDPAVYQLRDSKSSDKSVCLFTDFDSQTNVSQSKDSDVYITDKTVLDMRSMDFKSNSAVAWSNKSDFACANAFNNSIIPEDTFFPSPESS
- Test name: DELFIA ELISA, human antigen; heat map cell of the clone
Let's look at some binders and their measured ELISA signal (heat map).
Write the number on its own, no unit after it.

These recorded examples may help you get a feel for the data.
Binder	ELISA signal (heat map)
1245_P01_E07 (antibody, IgG1, V domains shown, also called ADT1-7; parental ADT1-7) VH: QVQLVESGGGLVKPGGSLRLSCAASGFTFSDYYMSWIRQAPGKGLEWVSYISSSGSTIYYADSVKGRFTISRDNAKNSLYLQMNSLRAEDTAVYYCARVDYADAFDIWGQGTLVTVSS VL: DIQMTQSPSSLSASVGDRVTIACRAGQSIGTYLNWYQQKPGKAPKLLIYVASSLQSGVPSRFSGSGSGTEFTLTISSLQPEDFATYYCQQSYSTLLTFGRGTKVEIK	5470
ADT1-7-42 (antibody, IgG1, V domains shown, IgG1) VH: EVQLVESGGGLVKPGGSLRLSCAASGFTFSDYYMSWIRQAPGKGLEWVSYISSSGSTIYYADSVKGRFTISRDNAKNSLYLQMNSLRAEDTAVYYCARDDYEDAFDIWGQGTLVTVSS VL: DIQMTQSPSSLSASVGDRVTIACRAGQSIGTYLNWYQQKPGKAPKLLIYVASSLQSGVPSRFSGSGSGTEFTLTISSLQPEDFATYYCQQSSSELLTFGRGTKVEIK	37600
ADT1-7-20 (antibody, IgG1, V domains shown, IgG1) VH: EVQLVESGGGLVKPGGSLRLSCAASGFTFSDYYMSWIRQAPGKGLEWVSYISSSGSTIYYADSVKGRFTISRDNAKNSLYLQMNSLRAEDTAVYYCARVDYQEAFDIWGQGTLVTVSS VL: DIQMTQSPSSLSASVGDRVTIACRAGQSIGTYLNWYQQKPGKAPKLLIYVASSLQSGVPSRFSGSGSGTEFTLTISSLQPEDFATYYCQQSYSGLDTFGRGTKVEIK	30800
ADT1-7-17 (antibody, IgG1, V domains shown, IgG1) VH: EVQLVESGGGLVKPGGSLRLSCAASGFTFSDYYMSWIRQAPGKGLEWVSYISSSGSTIYYADSVKGRFTISRDNAKNSLYLQMNSLRAEDTAVYYCARIDYEDAFDIWGQGTLVTVSS VL: DIQMTQSPSSLSASVGDRVTIACRAGQSIGTYLNWYQQKPGKAPKLLIYVASSLQSGVPSRFSGSGSGTEFTLTISSLQPEDFATYYCQQSGSELLTFGRGTKVEIK	30200

Here is the next item to consider.
Input: Specify reported ELISA signal (heat map) for the binder shown: ADT1-7-15 (antibody, IgG1, V domains shown, IgG1) VH: EVQLVESGGGLVKPGGSLRLSCAASGFTFSDYYMSWIRQAPGKGLEWVSYISSSGSTIYYADSVKGRFTISRDNAKNSLYLQMNSLRAEDTAVYYCARDDYNDAFDIWGQGTLVTVSS VL: DIQMTQSPSSLSASVGDRVTIACRAGQSIGTYLNWYQQKPGKAPKLLIYVASSLQSGVPSRFSGSGSGTEFTLTISSLQPEDFATYYCQQSADTLLTFGRGTKVEIK
Output: 30400

Data origin: patent US20230028110A1
